For each record, write down the corresponding autophagy induction.
Tested on: U2OS
Test Description: Here: values are normalized to the negative (DMSO; defined as 0% autophagy induction) and positive (250nM Torin1; mTOR inhibitor; defined as maximal inducer of autophagy = 100%) control compounds and represented as % of autophagy induction. […] The impact of autophagy induction on cells is complex and depends on the affected target. As such, the magnitude of a phenotype may not be equally mirrored in the %-value of autophagy induction and vice versa. The dynamics of the induction may indicate the mode of activation: e.g. activation via phosphorylation or a signaling cascade may occur fast, while activation via transcription factors may take considerably longer. […] Of note, treatment concentrations may be sub-optimal for specific compounds, leading to false negative annotations.
Format: functional, Homo sapiens
Experimental Context: Compound Concentration 2 uM, Timepoint 60 hours, Culturing Media DMEM, 1 % Penicillin/Streptomycin, 10% Fetal bovin serum Add-On: No, Screening Media Control DMEM, Screening Media Samples DMEM
Numbers only, in %.

Record excerpt, results attached:
| Compound | autophagy induction [%] |
| --- | --- |
| COc1ccc(Br)cc1S(=O)(=O)NC(=O)/C=C/c1ccccc1Cc1ccc2ccccc2c1 | 114.114 |
| CCCCN(CC)c1nc(C)nc2c1c(C)cn2-c1c(C)cc(C)cc1C.Cl | 114.358 |
| c1cc(CN2CCCNCCNCCCNCC2)ccc1CN1CCCNCCNCCCNCC1 | -2.96 |
| CCCCCCCCCCCCCCCCOC[C@H](COP(=O)([O-])OCC[N+](C)(C)C)OC(C)=O | -1.895 |
| O=C(O)CC/C=C\C[C@@H]1CO[C@H](c2ccccc2Cl)O[C@@H]1c1ccccc1O | 114.217 |
| CS(=O)(=O)NC[C@H]1CC[C@H](Nc2nc3c(s2)CCSc2ccccc2-3)CC1 | -2.833 |
| CC(C)(N)C(=O)N[C@H](COCc1ccccc1)C(=O)N1CCC2(CC1)CN(S(C)(=O)=O)c1ccccc12.CS(=O)(=O)O [IBUTAMOREN MESYLATE] | 113.997 |
| COc1ccc(CNC(=O)c2cc(-c3cncc(Cl)c3)cnc2-c2ccccn2)nc1OC | -2.86 |

Continue with the compound presented below.
autophagy induction for `O=C(Cc1ccccc1)Nc1nc2ccc(Cl)cc2c2nc(-c3ccco3)nn12` ? -0.2104

====

System: U2OS
Test Description: Here: values are normalized to the negative (DMSO; defined as 0% autophagy induction) and positive (250nM Torin1; mTOR inhibitor; defined as maximal inducer of autophagy = 100%) control compounds and represented as % of autophagy induction. […] The impact of autophagy induction on cells is complex and depends on the affected target. As such, the magnitude of a phenotype may not be equally mirrored in the %-value of autophagy induction and vice versa. The dynamics of the induction may indicate the mode of activation: e.g. activation via phosphorylation or a signaling cascade may occur fast, while activation via transcription factors may take considerably longer. […] Of note, treatment concentrations may be sub-optimal for specific compounds, leading to false negative annotations.
Assay type: functional, Homo sapiens
Experimental Context: Compound Concentration 2 uM, Timepoint 12 hours, Culturing Media DMEM, 1 % Penicillin/Streptomycin, 10% Fetal bovin serum Add-On: No, Screening Media Control DMEM, Screening Media Samples DMEM
Reported Endpoint: autophagy induction (%)
Answers are plain numbers, in %.

| Molecule | autophagy induction (%) |
| --- | --- |
| COc1ccc(Br)cc1S(=O)(=O)NC(=O)/C=C/c1ccccc1Cc1ccc2ccccc2c1 | -3.861 |
| CCCCCCCCCCCCCCCCOC[C@H](COP(=O)([O-])OCC[N+](C)(C)C)OC(C)=O | 2.298 |
| CN(C(=O)Cc1ccc(Cl)c(Cl)c1)C(CN1CCCC1)c1cccc(OCC(=O)O)c1.Cl (configuration not stated) | -9.959 |
| C[C@]1(C(=O)N(CCCC(=O)O)Cc2cccc(Cl)c2)CCN1C(=O)c1csc2ccccc12 | 5.378 |
| CC(C)Oc1ccccc1C(=O)Nc1ccccc1C(=O)Nc1cccc(S(=O)(=O)C(F)(F)F)c1 | 2.367 |
| FC(F)(F)c1c(N2CCC(c3ccccc3)CC2)ccn2c(CC3CC3)nnc12 | -8.584 |

For every record below, what is its autophagy induction?
1. Cc1cn2cc(CC(=O)N3CCC4(CC3)CN(Cc3ccc(-n5nccn5)cc3Cl)C4)nc2s1
2. CCC[C@H](Oc1cc(C)c(-n2cc(C(F)(F)F)cn2)c(C)c1)c1ccc(C(=O)NCCC(=O)O)cc1
3. O=C(O)C1CN(Cc2ccc(-c3nc4cc(Cc5ccccc5F)ccc4s3)c(F)c2)C1

2.217
-1.65
22.0588

Batch of 7 molecules: report autophagy induction for each.
1. CC1=C2C[C@H]3[C@@H](CC=C4C[C@@H](O)CC[C@@]43C)[C@@H]2CC[C@]12O[C@@H]1C[C@H](C)CN[C@H]1[C@H]2C
2. N#Cc1c(N)nc(SCC(N)=O)c(C#N)c1-c1ccc(OCC2CC2)cc1
3. COc1ccc(S(=O)(=O)N2c3ccc(Cl)cc3[C@](O)(c3ccccc3Cl)[C@@H]2C(=O)N2CCC[C@H]2C(N)=O)cc1OC
4. Cc1csc(NC(=O)c2cc(F)cc(Oc3cncnc3)c2)n1
5. CCCCN(CCCC)C(=O)CN1C[C@@H](c2ccc3c(c2)OCO3)[C@H](C(=O)O)[C@H]1c1ccc(OC)cc1
6. O=C(O)COc1cccc(CN(Cc2ccc(-n3cccn3)cc2)S(=O)(=O)c2cccnc2)c1
7. COc1cccc(-c2c(C)n(Cc3c(F)cccc3C(F)(F)F)c(=O)n(C[C@H](NCCCC(=O)[O-])c3ccccc3)c2=O)c1F.[Na+] [ELAGOLIX SODIUM]

-12.942
6.979
-3.79
-9.821
-9.31
-11.5162
12.3647

If you can, please state the reported autophagy induction value of `CCCCCNC(=O)NS(=O)(=O)c1cc([N+](=O)[O-])ccc1NC1CCCCC1` . 12.2747
